target_under_test: DLG1_3, Q12959
Sequence (Q12959 457-571): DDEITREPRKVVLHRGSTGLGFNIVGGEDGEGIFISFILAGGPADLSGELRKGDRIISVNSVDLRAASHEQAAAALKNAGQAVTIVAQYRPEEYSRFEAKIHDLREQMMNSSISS
experiment: holdup assay
Set-up: key: below the threshold = too weak to quantify, mostly under pKd 3.1 to 4
test_parameters: plain residues with an end cap or a label only (N-terminal biotin on a linker: ado-ado)
endpoint_name: pKd

> print(dat)
                          binder               result
1     TPPAAKKSRI [BAZ1A, Q9NRL2]                 3.81
2     RKPKPSSSCC [RAB9A, P51151]  below the threshold
3   SNAGNTATKA [NOSTRIN, Q8IVI9]  below the threshold
4  TSQESEDTYL [TBC1D10A, Q9BXI6]  below the threshold
5     EVEEFPETSV [TRPV3, Q8NET8]                 4.64

Ask | // pKd lookup, key: RRRESYSTTV [EVI5, O60447]
Reply | 4.16

Ask | Likewise for QMNQTLPVQV [EPHB3, P54753] ?
Reply | 3.76

Ask | Likewise for VRNLPESEEL [MYOZ3, Q8TDC0] ?
Reply | below the threshold

Ask | Likewise for PEYLGLDVPV [ERBB2, P04626] ?
Reply | below the threshold
